All figures here come from PubChem BioAssay AID1963983.

- System: 186277-243-T-J2-PDC multi-cell spheroid viability;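 also: spheroids exposed to compounds for seven days before viability reading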
- test_name: Anticancer human tumor 186277-243-T-J2-PDC patient-derived colon adenocarcinoma cell line growth inhibition [PI3K]
- protocol_conditions: curve of first compound; second compound 0.0316 µM
- Text: Combinatorial screen of targeted agents with the PI3K inhibitors inavolisib, alpelisib, duvelisib, and copanlisib in multi-cell type tumor spheroids A high-throughput screen of multi-cell type tumor spheroids was designed to identify active combinations of targeted small molecules and PI3K pathway inhibitors. […] Compounds. […] If the clinical Cmax for an agent had not been determined, the highest concentration tested was 10 microM. […]
In this section we review reported IC50 values for a set of compounds.
Unit nM implied. Number only.

Below: 10 compounds and their reported IC50.
So, Cn1ncc(Cl)c1-c1cc(C(=O)NC(CN)Cc2cccc(F)c2)sc1Cl (configuration not stated) + CC(Nc1ccc2c(c1)OCCn1cc(N3C(=O)OCC3C(F)F)nc1-2)C(N)=O ? Its IC50 was 339

// Cn1nccc1Nc1nccc(-c2ccn(C(CO)c3ccc(Cl)c(F)c3)c(=O)c2)n1 (configuration not stated) + CC(Nc1ncnc2nc[nH]c12)c1cc2cccc(Cl)c2c(=O)n1-c1ccccc1 : IC50 value = 2800

The reported value for CC1(C)CCC(Nc2ncc(C(F)(F)F)c(-c3c[nH]c4c(P(C)(C)=O)c(C#N)ccc34)n2)CN1 (configuration not stated) + CC(Nc1ncnc2nc[nH]c12)c1cc2cccc(Cl)c2c(=O)n1-c1ccccc1 in terms of IC50 is 4130

In plain terms, Cn1ncnc1[C@H]1c2n[nH]c(=O)c3cc(F)cc(c23)N[C@@H]1c1ccc(F)cc1 + COc1c(OCCCN2CCOCC2)ccc2c3n(c(=NC(=O)c4cnc(N)nc4)nc12)CCN3 has a documented IC50 of 21.4

Quick note, IC50 for C[C@@H](NC(=O)c1ncnc(N)c1Cl)c1ncc(C(=O)Nc2cc(C(F)(F)F)c(Cl)cn2)s1 + COc1c(OCCCN2CCOCC2)ccc2c3n(c(=NC(=O)c4cnc(N)nc4)nc12)CCN3 landed at 1640

Summary for this compound, CCCS(=O)(=O)Nc1ccc(F)c(C(=O)c2c[nH]c3ncc(-c4ccc(Cl)cc4)cc23)c1F + CC(Nc1ccc2c(c1)OCCn1cc(N3C(=O)OCC3C(F)F)nc1-2)C(N)=O : IC50 is 5340

IC50 for CC(C)NCC(C(=O)N1CCN(c2ncnc3c2C(C)CC3O)CC1)c1ccc(Cl)cc1 (configuration not stated) + CC(Nc1ccc2c(c1)OCCn1cc(N3C(=O)OCC3C(F)F)nc1-2)C(N)=O is 648

// IC50 lookup, compound = CC1(C)CCC(Nc2ncc(C(F)(F)F)c(-c3c[nH]c4c(P(C)(C)=O)c(C#N)ccc34)n2)CN1 (configuration not stated) + Cc1nc(NC(=O)N2CCCC2C(N)=O)sc1-c1ccnc(C(C)(C)C(F)(F)F)c1 , result: 3560

The compound Cn1nccc1Nc1nccc(-c2ccn(C(CO)c3ccc(Cl)c(F)c3)c(=O)c2)n1 (configuration not stated) + Cc1nc(NC(=O)N2CCCC2C(N)=O)sc1-c1ccnc(C(C)(C)C(F)(F)F)c1 showed IC50 equal to 1840

Looking up CC1(C)CCC(Nc2ncc(C(F)(F)F)c(-c3c[nH]c4c(P(C)(C)=O)c(C#N)ccc34)n2)CN1 (configuration not stated) + CC(Nc1ccc2c(c1)OCCn1cc(N3C(=O)OCC3C(F)F)nc1-2)C(N)=O , I see its IC50 listed as 3520

Others:
Briefly, IC50 measured for Cn1ncc(Cl)c1-c1cc(C(=O)NC(CN)Cc2cccc(F)c2)sc1Cl (configuration not stated) + Cc1nc(NC(=O)N2CCCC2C(N)=O)sc1-c1ccnc(C(C)(C)C(F)(F)F)c1 : 960

IC50 reported for this compound CC(C)NCC(C(=O)N1CCN(c2ncnc3c2C(C)CC3O)CC1)c1ccc(Cl)cc1 (configuration not stated) + Cc1nc(NC(=O)N2CCCC2C(N)=O)sc1-c1ccnc(C(C)(C)C(F)(F)F)c1 : 893

The compound Cn1cnc2c(F)c(Nc3ccc(Br)cc3Cl)c(C(=O)NOCCO)cc21 + CC(Nc1ncnc2nc[nH]c12)c1cc2cccc(Cl)c2c(=O)n1-c1ccccc1 showed IC50 equal to 175

# IC50 of CC(=O)c1c(C)c2cnc(Nc3ccc(N4CCNCC4)cn3)nc2n(C2CCCC2)c1=O + COc1c(OCCCN2CCOCC2)ccc2c3n(c(=NC(=O)c4cnc(N)nc4)nc12)CCN3 = 57.4
